biological target: rFAAH (Rattus norvegicus, UniProt P97612); experiment: Lineweaver–Burk kinetic analysis; format: biochemical; details: after 3 h preincubation with the enzyme
Sequence (P97612 30-579 limits assumed): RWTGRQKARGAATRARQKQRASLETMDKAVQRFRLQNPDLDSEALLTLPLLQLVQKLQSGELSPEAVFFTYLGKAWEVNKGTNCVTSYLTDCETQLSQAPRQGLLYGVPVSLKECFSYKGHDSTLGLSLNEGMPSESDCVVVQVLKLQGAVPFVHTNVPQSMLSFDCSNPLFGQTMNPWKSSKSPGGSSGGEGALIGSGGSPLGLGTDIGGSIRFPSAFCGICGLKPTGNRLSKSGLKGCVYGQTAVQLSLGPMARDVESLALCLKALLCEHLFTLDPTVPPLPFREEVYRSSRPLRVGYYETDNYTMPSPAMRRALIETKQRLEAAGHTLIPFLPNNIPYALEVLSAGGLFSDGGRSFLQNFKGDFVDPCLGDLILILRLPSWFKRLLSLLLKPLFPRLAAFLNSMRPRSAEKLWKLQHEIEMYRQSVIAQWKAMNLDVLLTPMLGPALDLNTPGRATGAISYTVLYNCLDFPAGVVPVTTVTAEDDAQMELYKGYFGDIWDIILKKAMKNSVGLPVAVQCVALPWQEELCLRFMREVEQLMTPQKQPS
attribute-measured: mode of inhibition (Lineweaver–Burk)

compound: C[S+]([O-])/C=C/c1ccc(-c2cnc(C(=O)CCCCCCc3ccccc3)o2)nc1 (stereo not shown)
observed-value: noncompetitive
--
compound: CCOS(=O)(=O)/C=C/c1ccc(-c2cnc(C(=O)CCCCCCc3ccccc3)o2)nc1
observed-value: noncompetitive
--
compound: CSC(=O)CCCCc1cnc(C(=O)CCCCCCc2ccccc2)o1
observed-value: reversible, competitive
--
compound: CSC(=O)Cc1ccc(-c2cnc(C(=O)CCCCCCc3ccccc3)o2)nc1
observed-value: reversible, competitive
